Run description: yeast display, Sf9 membrane polyspecificity reagent, FACS + sequencing; frameworks hold sequencing errors
Property: polyreactivity (PSR sort gate)

Sequence content	Result
QVQLVESGGGLVQAGGSLRLSCAASGFTFYDYAMGRYIQAPGKERELVAGINSGDSTYYADSVKGRFTISRDNAKNSVYLLMNSLKPEDSAVYYCAADWAWLQWAYDYWGQGTQVTVSS	low polyreactivity
QVQLVESGGGLVQAGGSLRLSSAGSGSPFRSNAMGWYRQAPGKERELVAAISQRGGSTYYADSVKGRFTISRDNAKNPVYLQMNSLKAVDTAVYYCAKVSKRVGFPTAMNYWGQGTQVTVSS	high polyreactivity
QVQLVESGGGLVQAGGSLRLSCAPSGSTFYYYAMGWYRQAPGKERELVAAITYRGGTYYADSVKGRFTISRDNAKNTVYLQMNSLKPEDTAVYYCAAPLSRIMDYWGQGTQVTVSS	high polyreactivity
QVQLVESGGGLVQAGGSLRLSFASSGSTFYYNAMGWYRQAPGKERDLVARISRSGGSTYADSVKGRFTISRDNAKNTVYFQMNSLKPEDTAVSYCNADAYGTPEFTSYAVRYDYGGQGTQVTVSS	low polyreactivity
QVQLVESGGGLVQAGGSLRLSCAASGRIFYYYAMGRYRQAPGKERELVAAISWSGGSTYYADSVKGRFTISRDNAKNTVYLQMNSLKPEDTAVYYCAAESRKYREYYYWGQGTQVTVSS	high polyreactivity
QVQLVESGGGLDQAGGSLRLSCAASGSTFVVNAMGWYRQAPGKERELVAAIRNSGSTTYADSVKGRFTISRDNAKYTVYLQMNSLKPEDTAVYYCATDFSATVTAVQINPYDYWGQGTQVTVSS	low polyreactivity
QVQLVESGGGLVQAGGSLRLSCAASGRTSSTYDMGWYRLAPGKERELVADITWYGGSTYYADSVKGRFTISRDNAKNTVYLQMNSLIPEDTAVYYCAAERKDGGYGYGFYWGVVGLDYWGQGTQVTVSS	low polyreactivity
QVQLVESGGGLVQAGGSLRLSCAASGRIFYYYVMGWYRQAPGKERELVAAISSRGGCTYYADSVKGRFTISRDNAKNTVYLQMNSLKPEDTAVYYCAAEYGSISLRYPYYWRYDYWGQGTQVTVSS	high polyreactivity

Value of polyreactivity (PSR sort gate) reported for the sequence QVQLVESGGGLVQAGGSLRLSCAASGYTISRYAMGWYIQAHGKERQLVAAISSRGGSTYYADSVKGRFTISRDNAKNTVYLQMNSLNPEDTADYYWAEDYGVGYGIVGSYYWGQGTQVTVSS is high polyreactivity
